Assay: BSK_4H_SRB: Viability Assessment in the BioMAP Diversity Plus: 4H Assay (AID 2283027);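 note: cells exposed to compound for 24 h before staining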
Conditions: primary human endothelial cells (HUVEC)
Calls of active or inactive are those of the source. Rule for the calls: active = hit-call score of the fitted dose curve at least 0.9, where 1 is the maximum; inactive = score below 0.9.
Possible outcomes: yes for active, no for inactive

Compound	Class Name
CCC(=O)Nc1ccc(Cl)c(Cl)c1	no
CC(C1CC1)C(O)(Cn1cncn1)c1ccc(Cl)cc1 (stereo not given)	no
COc1cc(OC)nc(Sc2cccc(Cl)c2C(=O)O)n1	no
CCOP(=S)(OCC)SCCSCC	no
CN(C)[C@@H]1C(=O)C(C(N)=O)=C(O)[C@@]2(O)C(=O)C3=C(O)c4c(O)cccc4[C@@](C)(O)[C@H]3[C@H](O)[C@@H]12	no
C=C(C)[C@H]1Cc2c(ccc3c2O[C@@H]2COc4cc(OC)c(OC)cc4[C@@H]2C3=O)O1	yes
CC(Oc1cccc(Cl)c1)C(=O)O (stereo not given)	no
CCCOc1nn(C(=O)NS(=O)(=O)c2ccccc2C(=O)OC)c(=O)n1C	no
CN(C)C(=O)Nc1cccc(C(F)(F)F)c1	no
CCCCOC(=O)[C@@H](C)Oc1ccc(Oc2ccc(C#N)cc2F)cc1	no
Cc1ccn2nc(S(=O)(=O)Nc3c(F)cccc3F)nc2n1	yes
CC(C)[C@H](C(=O)O[C@H](C#N)c1cccc(Oc2ccccc2)c1)c1ccc(Cl)cc1	no
Nc1c(Cl)cc([N+](=O)[O-])cc1Cl	no
CC1(C(=O)Nc2ccc(O)c(Cl)c2Cl)CCCCC1	no
CNC(=O)ON=C(C)SC	no
CCCSP(=O)(OCC)Oc1ccc(Br)cc1Cl (stereo not given)	yes
CCC(CC)Nc1c([N+](=O)[O-])cc(C)c(C)c1[N+](=O)[O-]	yes
CCOP(=S)(Oc1cnc(C(C)(C)C)nc1)OC(C)C (stereo not given)	yes
Cc1cc(C2CC2)nc(Nc2ccccc2)n1	no
CCC(=NOC/C=C/Cl)C1=C(O)CC(C2CCOCC2)CC1=O (stereo not given)	no
CCCOCC(=Nc1ccc(Cl)cc1C(F)(F)F)n1ccnc1	yes
CCOP(=S)(OCC)OC(Cl)C(Cl)(Cl)Cl (stereo not given)	yes
CCCCSP(=O)(SCCCC)SCCCC	yes
CCOP(=O)(NC(C)C)Oc1ccc(SC)c(C)c1 (stereo not given)	no
C#CCC1=C(C)C(OC(=O)C2C(C=C(C)C)C2(C)C)CC1=O (stereo not given)	yes
COP(=O)(OC)OC(Br)C(Cl)(Cl)Br (stereo not given)	yes
CSc1nc(NC(C)C)nc(NC(C)C)n1	no
CC1=NNC(=O)N(/N=C/c2cccnc2)C1	no
CSc1nnc(C(C)(C)C)c(=O)n1N	no
CC[C@H](C)[C@H]1O[C@]2(C=C[C@@H]1C)C[C@@H]1C[C@@H](C/C=C(\C)[C@@H](O[C@H]3C[C@H](OC)[C@@H](O[C@H]4C[C@H](OC)[C@@H](NC)[C@H](C)O4)[C@H](C)O3)[C@@H](C)/C=C/C=C3\CO[C@@H]4[C@H](O)C(C)=C[C@@H](C(=O)O1)[C@]34O)O2	yes
N#CSCSC#N	yes
COP(=O)(OC)SCn1c(=O)oc2cc(Cl)cnc21	no
CC(COc1ccc(Oc2ccccc2)cc1)Oc1ccccn1 (stereo not given)	no
CCOP(=S)(OCC)Oc1cc(C)nc(C(C)C)n1	no
O=C(O)c1cc(Oc2ccc(C(F)(F)F)cc2Cl)ccc1[N+](=O)[O-]	no
COP(=O)(OC)C(O)C(Cl)(Cl)Cl (stereo not given)	no
CON=C(C(=O)OC)c1ccccc1CON=C(C)c1cccc(C(F)(F)F)c1	yes
CNC(=O)Oc1cccc2c1OC(C)(C)O2	no
S=C1NCCN1	no
CNC(=O)ON=C(SC)C(=O)N(C)C	no

Origin of values: PubChem BioAssay (EPA / NIEHS)
